Tested on: NCI-H226 lung
Assay: NCI tumour cell line growth inhibition, 48 h
Attribute: TGI

Some solved cases for reference:
COMPOUND: O=C(Nc1ccc(Cl)c(Cl)c1)N1N=C2c3ccccc3CCC2C1c1ccc(Cl)cc1 (configuration not stated)
RESULT: > 100 µM
--
COMPOUND: COc1cc2c(cc1OC)C(=O)Cc1ccc(OC)c(OC)c1CN(C)CC2
RESULT: > 100 µM
--
COMPOUND: [O-][n+]1onc2c1/C(=N/O)CCC2
RESULT: > 100 µM
--
COMPOUND: Nc1ncnc2c1ncn2[C@H]1CC[C@@H](NO)C1
RESULT: > 100 µM
--
COMPOUND: N#Cc1nc(C(CO)N(Cc2ccccc2)C(=O)O)oc1N (configuration not stated)
RESULT: > 100 µM
--
COMPOUND: NC1=NCCN1CC(=O)O
RESULT: > 10000 µM

Qu. Please tell me: TGI of `O[C@@H]1C[C@H]2N3CC[C@@]2(c2cc4c(cc2C3)OCO4)[C@H]2O[C@@H]12` , system NCI-H226 lung?
Ans. 0.0792 µM

Qu. Request: `O=c1[nH]cnc2c1ncn2[C@@H]1C[C@H]1CO`
Ans. > 100 µM

Qu. Request: `CCOc1ccccc1NC(=O)CCc1n[nH]c(=S)o1`
Ans. > 100 µM

Qu. Request: `O=C(/C=C/c1ccccc1)N1CCCCC1`
Ans. > 100 µM

Qu. Request: `CC(=O)OCCOc1cc2c([nH]c3ccccc32)c(C)c2cccc1-2`
Ans. 25 µM

Qu. Request: `O=c1c2cc([N+](=O)[O-])ccc2nc2n1CCCCC2`
Ans. > 100 µM

Qu. Request: `COc1ccc(-c2c(-c3cc(OC)c(OC)c(OC)c3)noc2N)cc1`
Ans. > 100 µM

Qu. Request: `Br/C(=N\Nc1nn[nH]n1)c1ccncc1`
Ans. > 100 µM

Qu. Request: CC(C)(C)OC(=O)NC(CO)c1cccc(OCc2ccccc2)c1 (configuration not stated)
Ans. > 100 µM
